Each recorded value in this set is attributed to patent US20260035384A1.

- targetSystem: AR in VCaP cells (Homo sapiens, UniProt P10275)
- Construct: Assay on Degradation Activity for AR in VCaP Cells; endogenous in cells; host or cells: VCaP cells
- Sequence (P10275 whole entry): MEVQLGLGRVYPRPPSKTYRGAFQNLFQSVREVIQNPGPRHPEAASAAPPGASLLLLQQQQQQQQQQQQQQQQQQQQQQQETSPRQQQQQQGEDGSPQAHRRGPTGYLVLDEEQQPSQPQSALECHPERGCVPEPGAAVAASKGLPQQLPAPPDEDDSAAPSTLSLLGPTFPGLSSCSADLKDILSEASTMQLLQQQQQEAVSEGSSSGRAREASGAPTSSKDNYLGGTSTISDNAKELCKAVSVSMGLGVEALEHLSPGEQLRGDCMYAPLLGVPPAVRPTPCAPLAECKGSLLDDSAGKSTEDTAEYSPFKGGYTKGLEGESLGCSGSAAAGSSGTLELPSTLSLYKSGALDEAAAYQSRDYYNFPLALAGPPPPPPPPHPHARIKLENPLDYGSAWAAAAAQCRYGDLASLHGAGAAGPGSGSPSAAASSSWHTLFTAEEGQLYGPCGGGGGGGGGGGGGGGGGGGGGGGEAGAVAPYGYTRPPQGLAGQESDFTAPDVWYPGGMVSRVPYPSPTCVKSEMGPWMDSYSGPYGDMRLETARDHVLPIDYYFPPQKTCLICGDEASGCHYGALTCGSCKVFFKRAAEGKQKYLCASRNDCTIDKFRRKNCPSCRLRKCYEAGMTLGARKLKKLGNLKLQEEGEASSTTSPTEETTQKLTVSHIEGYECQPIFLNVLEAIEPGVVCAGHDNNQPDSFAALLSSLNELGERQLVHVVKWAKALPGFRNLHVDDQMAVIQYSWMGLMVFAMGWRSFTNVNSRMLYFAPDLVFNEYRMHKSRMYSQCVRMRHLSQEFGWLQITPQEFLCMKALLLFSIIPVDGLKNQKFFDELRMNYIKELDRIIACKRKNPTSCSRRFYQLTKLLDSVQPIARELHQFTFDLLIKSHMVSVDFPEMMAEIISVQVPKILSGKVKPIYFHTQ
- test: Assay on degradation activity for AR in VCaP cells (HTRF human androgen receptor detection kit)
- Assay type: cell-based
- conditionInfo: 24 h incubation
Overview of recorded DC50 for various molecules
property: DC50

molecule: N#Cc1ccc(O[C@H]2CC[C@H](NC(=O)c3ccc(N4CCC(N5CC(N6CCc7ccc8c(C9CCC(=O)NC9=O)noc8c7CC6)C5)CC4)nn3)CC2)cc1Cl (stereo partly drawn)
property: DC50
result: ≤ 1 nM
--
molecule: N#Cc1ccc(O[C@H]2CC[C@H](NC(=O)c3ccc(N4CCC5(CC4)CC(CN4CCc6ccc7c(C8CCC(=O)NC8=O)noc7c6CC4)C5)nn3)CC2)cc1Cl (stereo partly drawn)
property: DC50
result: ≤ 1 nM
--
molecule: N#Cc1ccc(O[C@H]2CC[C@H](NC(=O)c3ccc(N4CCC(CN5Cc6ccc7c(C8CCC(=O)NC8=O)noc7c6C5)CC4)nn3)CC2)cc1Cl (stereo partly drawn)
property: DC50
result: ≤ 1 nM

###

Overview of recorded Human liver microsome Residuals at 60 min (%) for various compounds
- test: In vitro stability in liver microsome
- Type: in vitro ADME
- conditionInfo: human liver microsome 0.5 mg/mL, NADPH, 37° C.
property: Human liver microsome Residuals at 60 min (%)

compound: N#Cc1ccc(O[C@H]2CC[C@H](NC(=O)c3cnc(N4CCC(CN5Cc6ccc7c(C8CCC(=O)NC8=O)noc7c6C5)CC4)nc3)CC2)cc1Cl (stereo partly shown)
result: >85%
--
compound: N#Cc1ccc(O[C@H]2CC[C@H](NC(=O)c3ccc(N4CCC5(CC4)CC(CN4Cc6ccc7c(C8CCC(=O)NC8=O)noc7c6C4)C5)nn3)CC2)cc1Cl.O=C(O)/C=C\C(=O)O (stereo partly shown)
result: >85%
--
compound: N#Cc1ccc(O[C@H]2CC[C@H](NC(=O)c3ccc(N4CCC5(CC4)CN(C4Cc6ccc7c(C8CCC(=O)NC8=O)noc7c6C4)C5)nn3)CC2)cc1Cl (single isomer, unassigned) [Compound 24]
result: >85%
--
compound: N#Cc1ccc(O[C@H]2CC[C@H](NC(=O)c3ccc(N4CCC(N5CC(CN6Cc7ccc8c(C9CCC(=O)NC9=O)noc8c7C6)C5)CC4)nn3)CC2)cc1Cl (stereo partly shown)
result: >85%
--
compound: N#Cc1ccc(O[C@H]2CC[C@H](NC(=O)c3ccc(N4CCN(CC5Cc6ccc7c(C8CCC(=O)NC8=O)noc7c6C5)CC4)nn3)CC2)cc1Cl (stereo partly shown) [Compound 27]
result: >85%
--
compound: N#Cc1ccc(O[C@H]2CC[C@H](NC(=O)c3ccc(C4CCN(C5CN(c6cc7onc(C8CCC(=O)NC8=O)c7c7ccccc67)C5)CC4)nn3)CC2)cc1Cl (stereo partly shown)
result: >85%
--
compound: N#Cc1ccc(O[C@H]2CC[C@H](NC(=O)c3ccc(N4CCC(CN5Cc6ccc7c(C8CCC(=O)NC8=O)noc7c6C5)CC4)nn3)CC2)cc1Cl (stereo partly shown)
result: >85%
--
compound: N#Cc1ccc(O[C@H]2CC[C@H](NC(=O)c3ccc(N4CCC(CN5CC6(Cc7ccc8c(C9CCC(=O)NC9=O)noc8c7C6)C5)CC4)nn3)CC2)cc1Cl (stereo partly shown)
result: >85%
--
compound: N#Cc1ccc(O[C@H]2CC[C@H](NC(=O)c3ccc(C4CCN(CC5CN(c6cc7onc(C8CCC(=O)NC8=O)c7c7ccccc67)C5)CC4)nn3)CC2)cc1Cl (stereo partly shown)
result: >85%
--
compound: N#Cc1ccc(O[C@H]2CC[C@H](NC(=O)c3ccc(N4CCC(CN5CCc6ccc7c(C8CCC(=O)NC8=O)noc7c6C5)CC4)nn3)CC2)cc1Cl (stereo partly shown)
result: >85%
--
compound: N#Cc1ccc(O[C@H]2CC[C@H](NC(=O)c3ccc(N4CCN(CC5Cc6ccc7c(C8CCC(=O)NC8=O)noc7c6C5)CC4)nn3)CC2)cc1Cl (stereo partly shown) [Compound 26]
result: >85%
--
compound: N#Cc1ccc(O[C@H]2CC[C@H](NC(=O)c3ccc(N4CCC5(CC4)CN(C4Cc6ccc7c(C8CCC(=O)NC8=O)noc7c6C4)C5)nn3)CC2)cc1Cl (single isomer, unassigned) [Compound 25]
result: >85%
--
compound: N#Cc1ccc(O[C@H]2CC[C@H](NC(=O)c3ccc(N4CCC(N5CC(N6Cc7ccc8c(C9CCC(=O)NC9=O)noc8c7C6)C5)CC4)nn3)CC2)cc1Cl (stereo partly shown)
result: >85%
